B1: HDV Ribozyme (parent)
chain: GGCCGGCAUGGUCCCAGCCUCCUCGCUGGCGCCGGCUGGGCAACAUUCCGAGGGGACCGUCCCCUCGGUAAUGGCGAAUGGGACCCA

Variants of: B1
Experiment: self-cleavage, relative activity (ratio to wild type); higher = more cleavage; co-transcriptional
Decide using self-cleavage: a value greater than or equal to 0.1 is Criterion met, a smaller one is Criterion not met.

residue.change	assigned.class
G38A A43C	Criterion not met
U37G U47C	Criterion met
C4U G82A	Criterion not met
U23C A83G	Criterion met
C61U U72A	Criterion met
G55C A71U	Criterion met
G11U U37C	Criterion met
U12G G35U	Criterion met
A43U C61G	Criterion met
C32G C49A	Criterion not met
U37G A51C	Criterion not met
U20A G29U	Criterion not met
A16U G28C	Criterion not met
C14G A77U	Criterion not met
G5C C62G	Criterion met
